experiment: Terminal half life in Sprague-Dawley rat at 10 mg/kg, iv by LC-MS/MS analysis; format: ADME, organism-based; parameters: dose 10 mg/kg, route intravenous; conditions: in vivo, read-out: beta t1/2

| record-smiles | half-life / h |
| --- | --- |
| Cc1cc(C(=O)N2CCc3c(sc(NCc4ccccc4)c3C#N)C2)[nH]n1 | 1.83 |

----------
target: UniProt P05177; assay: Inhibition of recombinant human CYP1A2 assessed as remaining activity at 10 uM preincubated for 5 mins followed by substrate and NADP addition measured after 20 mins by fluorescence assay relative to control; format: ADME; conditions: read-out: Activity
Sequence (P05177 whole entry): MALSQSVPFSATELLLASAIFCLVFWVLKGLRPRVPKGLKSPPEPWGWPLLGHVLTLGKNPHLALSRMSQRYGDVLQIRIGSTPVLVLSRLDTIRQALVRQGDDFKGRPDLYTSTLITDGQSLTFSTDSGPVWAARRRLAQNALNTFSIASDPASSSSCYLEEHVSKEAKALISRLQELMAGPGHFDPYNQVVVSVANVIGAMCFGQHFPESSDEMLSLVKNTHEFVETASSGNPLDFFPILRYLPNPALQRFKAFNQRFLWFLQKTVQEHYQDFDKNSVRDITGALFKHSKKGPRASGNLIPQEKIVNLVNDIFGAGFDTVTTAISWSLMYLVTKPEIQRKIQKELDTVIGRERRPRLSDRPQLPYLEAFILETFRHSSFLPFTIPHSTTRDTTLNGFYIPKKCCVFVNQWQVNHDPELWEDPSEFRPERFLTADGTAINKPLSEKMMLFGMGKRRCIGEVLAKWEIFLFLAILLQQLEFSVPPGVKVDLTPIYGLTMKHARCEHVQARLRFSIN
Returns y if the recorded activity at 20 min, 10 µM is greater than or equal to 70%, and n otherwise.

| record-smiles | group |
| --- | --- |
| COc1cccc(CNc2sc3c(c2C#N)CCN(C(=O)c2ccc(F)cc2)C3)c1 | y |
| N#Cc1c(NCc2ccc(F)cc2)sc2c1CCN(C(=O)c1ccccc1)C2 | n |
| N#Cc1c(NCc2ccccc2)sc2c1CCN(C(=O)c1ccc(F)cc1)C2 | n |
| Cc1cc(C(=O)N2CCc3c(sc(NCc4ccccc4)c3C#N)C2)[nH]n1 | y |
| Cc1cccc(C(=O)N2CCc3c(sc(NCc4ccccc4)c3C#N)C2)c1 | n |

----------
biological target: Metabotropic glutamate receptor 1 (Homo sapiens); assay: Antagonist activity at human mGluR1 expressed in human Chem-3 cells assessed as inhibition of L-glutamate-induced calcium release at 10 uM by calcium-5 reagent-based fluorescence assay relative to control; assay type: functional, cell-based
Sequence (Q13255 19-1194 limits assumed): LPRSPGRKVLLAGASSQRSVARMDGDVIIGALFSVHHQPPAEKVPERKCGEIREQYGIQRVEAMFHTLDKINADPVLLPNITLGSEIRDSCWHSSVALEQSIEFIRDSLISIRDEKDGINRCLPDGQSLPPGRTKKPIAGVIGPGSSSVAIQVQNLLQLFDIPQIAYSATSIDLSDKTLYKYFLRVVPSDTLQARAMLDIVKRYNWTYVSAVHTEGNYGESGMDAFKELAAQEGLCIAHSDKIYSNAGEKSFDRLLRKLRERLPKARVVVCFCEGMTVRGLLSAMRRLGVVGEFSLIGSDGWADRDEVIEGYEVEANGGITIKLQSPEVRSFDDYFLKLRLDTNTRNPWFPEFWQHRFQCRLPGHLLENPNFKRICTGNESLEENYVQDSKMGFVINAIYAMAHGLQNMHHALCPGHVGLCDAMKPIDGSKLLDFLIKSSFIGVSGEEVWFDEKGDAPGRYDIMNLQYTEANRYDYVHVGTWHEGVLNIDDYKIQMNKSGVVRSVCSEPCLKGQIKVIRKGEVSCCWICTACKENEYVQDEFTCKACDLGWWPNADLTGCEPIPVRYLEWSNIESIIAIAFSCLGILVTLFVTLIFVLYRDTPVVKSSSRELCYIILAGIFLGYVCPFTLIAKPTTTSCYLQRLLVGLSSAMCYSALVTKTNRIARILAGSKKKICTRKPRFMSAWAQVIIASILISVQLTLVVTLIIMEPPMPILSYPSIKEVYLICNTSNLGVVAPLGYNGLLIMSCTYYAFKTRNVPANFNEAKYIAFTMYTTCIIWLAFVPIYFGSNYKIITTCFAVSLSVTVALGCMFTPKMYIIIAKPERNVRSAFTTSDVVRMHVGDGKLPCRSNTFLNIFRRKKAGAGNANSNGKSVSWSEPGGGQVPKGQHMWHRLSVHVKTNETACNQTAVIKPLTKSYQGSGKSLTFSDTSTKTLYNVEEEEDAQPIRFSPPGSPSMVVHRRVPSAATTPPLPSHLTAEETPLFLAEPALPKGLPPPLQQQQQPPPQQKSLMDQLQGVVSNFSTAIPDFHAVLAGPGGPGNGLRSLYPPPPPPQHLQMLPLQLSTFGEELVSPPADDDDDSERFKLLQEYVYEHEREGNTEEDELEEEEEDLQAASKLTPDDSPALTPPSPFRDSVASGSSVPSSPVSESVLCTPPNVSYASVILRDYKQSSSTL
In this section we review reported inhibition values for a set of molecules.

| record-smiles | measurement-unit | inhibition |
| --- | --- | --- |
| CC(C)c1cc(C(=O)N2CCc3c(sc(NC(=O)c4ccc(F)cc4)c3C#N)C2)[nH]n1 | % | 28.5 |
| COc1ccc(C(=O)N2CCc3c(sc(NCc4ccc(C#N)cc4)c3C#N)C2)cc1 | % | 10.9 |
| COc1ccc(C(=O)N2CCc3c(sc(NCc4cccc(F)c4)c3C#N)C2)cc1 | % | 42.8 |
| CC(C)c1cc(C(=O)N2CCc3c(sc(NCc4ccc(Cl)cc4)c3C#N)C2)[nH]n1 | % | 46.3 |
| Cc1cc(C(=O)N2CCc3c(sc(NC(=O)c4ccc(F)cc4)c3C#N)C2)[nH]n1 | % | 31 |
| COc1ccc(C(=O)N2CCc3c(sc(NCc4ccc(F)cc4)c3C#N)C2)cc1 | % | 47.7 |
| Cc1cc(C(=O)N2CCc3c(sc(NC(=O)c4ccc(Cl)cc4)c3C#N)C2)[nH]n1 | % | 42.2 |
| N#Cc1c(NCc2ccccc2)sc2c1CCN(C(=O)c1ccccc1)C2 | % | 66.4 |
| COc1ccc(C(=O)Nc2sc3c(c2C#N)CCN(C(=O)c2cc(C)n[nH]2)C3)cc1 | % | -9.58 |
| COc1cccc(CNc2sc3c(c2C#N)CCN(C(=O)c2ccc(F)cc2)C3)c1 | % | 67.5 |
| N#Cc1c(NCc2ccccc2)sc2c1CCN(C(=O)c1cccc(F)c1)C2 | % | 79 |

----------
target: Metabotropic glutamate receptor 5 (Homo sapiens); test: Antagonist activity at human mGluR5 expressed in human embryonic kidney cells assessed as inhibition of L-glutamate-induced calcium release at 10 uM by calcium-5 reagent-based fluorescence assay relative to control; assay type: functional, cell-based
Sequence (P41594 21-1212 limits assumed): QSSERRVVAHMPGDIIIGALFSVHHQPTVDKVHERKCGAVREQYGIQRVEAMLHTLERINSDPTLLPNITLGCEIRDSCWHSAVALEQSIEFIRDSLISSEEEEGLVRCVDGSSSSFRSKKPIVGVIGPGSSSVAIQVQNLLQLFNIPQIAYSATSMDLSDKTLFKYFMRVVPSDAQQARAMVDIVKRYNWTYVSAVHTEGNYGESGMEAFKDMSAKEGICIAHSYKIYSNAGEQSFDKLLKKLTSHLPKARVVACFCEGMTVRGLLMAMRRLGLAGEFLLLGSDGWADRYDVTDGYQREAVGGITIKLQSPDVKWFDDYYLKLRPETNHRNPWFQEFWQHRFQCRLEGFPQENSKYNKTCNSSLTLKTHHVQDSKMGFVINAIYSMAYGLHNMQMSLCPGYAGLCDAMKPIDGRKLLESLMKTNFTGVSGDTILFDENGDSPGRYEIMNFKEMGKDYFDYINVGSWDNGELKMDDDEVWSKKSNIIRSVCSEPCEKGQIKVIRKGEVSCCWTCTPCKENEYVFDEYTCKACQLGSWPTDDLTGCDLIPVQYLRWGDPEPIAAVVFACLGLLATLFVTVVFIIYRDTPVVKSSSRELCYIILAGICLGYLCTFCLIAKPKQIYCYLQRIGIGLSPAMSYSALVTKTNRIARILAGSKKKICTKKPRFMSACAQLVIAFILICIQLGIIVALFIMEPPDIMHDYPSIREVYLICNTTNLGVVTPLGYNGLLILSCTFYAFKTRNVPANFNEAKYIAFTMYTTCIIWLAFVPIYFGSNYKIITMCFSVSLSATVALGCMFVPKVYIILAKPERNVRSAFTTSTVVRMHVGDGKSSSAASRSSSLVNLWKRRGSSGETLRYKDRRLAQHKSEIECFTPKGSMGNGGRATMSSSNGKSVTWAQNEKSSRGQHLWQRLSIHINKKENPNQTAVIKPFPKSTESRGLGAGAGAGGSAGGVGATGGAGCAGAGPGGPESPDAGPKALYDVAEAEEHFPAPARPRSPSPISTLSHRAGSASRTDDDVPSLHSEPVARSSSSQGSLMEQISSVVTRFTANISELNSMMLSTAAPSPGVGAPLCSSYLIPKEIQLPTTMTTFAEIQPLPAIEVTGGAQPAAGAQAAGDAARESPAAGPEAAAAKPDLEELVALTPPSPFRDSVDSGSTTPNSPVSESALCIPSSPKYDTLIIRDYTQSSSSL
In this section we review reported inhibition values for a set of molecules.

| record-smiles | measurement-unit | inhibition |
| --- | --- | --- |
| COc1ccc(C(=O)N2CCc3c(sc(NCc4ccc(F)cc4)c3C#N)C2)cc1 | % | 68 |
| COc1ccc(C(=O)N2CCc3c(sc(NCc4cccc(F)c4)c3C#N)C2)cc1 | % | 69 |
| Cc1cc(C(=O)N2CCc3c(sc(NC(=O)c4ccc(F)cc4)c3C#N)C2)[nH]n1 | % | 13.7 |
| COc1cccc(CNc2sc3c(c2C#N)CCN(C(=O)c2ccc(F)cc2)C3)c1 | % | 31.1 |
| Cc1ccc(C(=O)N2CCc3c(sc(NCc4ccc(F)cc4)c3C#N)C2)cc1 | % | 37.6 |
| COc1cccc(CNc2sc3c(c2C#N)CCN(C(=O)c2cccc(F)c2)C3)c1 | % | 33.2 |
| COc1ccc(C(=O)Nc2sc3c(c2C#N)CCN(C(=O)c2cc(C)n[nH]2)C3)cc1 | % | 28.3 |
| Cc1cc(C(=O)N2CCc3c(sc(NC(=O)c4ccc(Cl)cc4)c3C#N)C2)[nH]n1 | % | -2.15 |
| Cc1cc(C(=O)N2CCc3c(sc(NC(=O)c4ccccc4)c3C#N)C2)[nH]n1 | % | 27.8 |
| Cc1ccc(C(=O)N2CCc3c(sc(NCc4cccc(F)c4)c3C#N)C2)cc1 | % | 54.8 |
| N#Cc1c(NCc2cccc(F)c2)sc2c1CCN(C(=O)c1ccc(F)cc1)C2 | % | 36.5 |
| N#Cc1c(NCc2ccc(F)cc2)sc2c1CCN(C(=O)c1ccc(F)cc1)C2 | % | 22.3 |
| N#Cc1c(NCc2ccccc2)sc2c1CCN(C(=O)c1ccccc1)C2 | % | 46 |
| Cc1cc(C(=O)N2CCc3c(sc(NCc4ccc(F)cc4)c3C#N)C2)[nH]n1 | % | 37.6 |
| CC(C)c1cc(C(=O)N2CCc3c(sc(NC(=O)c4ccc(Cl)cc4)c3C#N)C2)[nH]n1 | % | -4.28 |
| CC(C)c1cc(C(=O)N2CCc3c(sc(NC(=O)c4ccc(F)cc4)c3C#N)C2)[nH]n1 | % | -2.3 |
| Cc1cc(C(=O)N2CCc3c(sc(NCc4ccc(Cl)cc4)c3C#N)C2)[nH]n1 | % | 31.2 |
| N#Cc1c(NCc2ccccc2)sc2c1CCN(C(=O)c1ccc(F)cc1)C2 | % | 26.1 |
| CC(C)c1cc(C(=O)N2CCc3c(sc(NC(=O)c4ccccc4)c3C#N)C2)[nH]n1 | % | 39.3 |
| CC(C)c1cc(C(=O)N2CCc3c(sc(NCc4ccccc4)c3C#N)C2)[nH]n1 | % | 8.89 |
| N#Cc1c(NCc2ccccc2)sc2c1CCN(C(=O)c1ccn[nH]1)C2 | % | 4.48 |
| Cc1ccc(C(=O)N2CCc3c(sc(NCc4ccccc4)c3C#N)C2)cc1 | % | 24.3 |
| N#Cc1c(NCc2cccc(F)c2)sc2c1CCN(C(=O)c1ccccc1)C2 | % | 44.2 |
| Cc1cc(C(=O)N2CCc3c(sc(NCc4ccccc4)c3C#N)C2)[nH]n1 | % | 59.8 |
| N#Cc1c(NCc2ccccc2)sc2c1CCN(C(=O)c1cnccc1F)C2 | % | 16 |
| N#Cc1ccc(CNc2sc3c(c2C#N)CCN(C(=O)c2ccccc2)C3)cc1 | % | 3.16 |
| N#Cc1c(NCc2cccc(F)c2)sc2c1CCN(C(=O)c1ccc(Cl)cc1)C2 | % | 60 |
| N#Cc1c(NCc2ccc(Cl)cc2)sc2c1CCN(C(=O)c1ccc(F)cc1)C2 | % | 25.3 |
| COc1ccc(C(=O)N2CCc3c(sc(NCc4ccc(C#N)cc4)c3C#N)C2)cc1 | % | 41.5 |
| N#Cc1c(NCc2ccc(F)cc2)sc2c1CCN(C(=O)c1ccn[nH]1)C2 | % | 13.5 |
| CC(C)c1cc(C(=O)N2CCc3c(sc(NCc4ccc(F)cc4)c3C#N)C2)[nH]n1 | % | 43.1 |
| Cc1cccc(C(=O)N2CCc3c(sc(NCc4ccccc4)c3C#N)C2)c1 | % | 8.8 |
| CC(C)c1cc(C(=O)N2CCc3c(sc(NCc4ccc(Cl)cc4)c3C#N)C2)[nH]n1 | % | 24.8 |
| N#Cc1c(NCc2ccccc2)sc2c1CCN(C(=O)c1cccc(F)c1)C2 | % | 29.8 |
| COc1ccc(C(=O)Nc2sc3c(c2C#N)CCN(C(=O)c2cc(C(C)C)n[nH]2)C3)cc1 | % | 63.1 |
| N#Cc1c(NCc2ccc(F)cc2)sc2c1CCN(C(=O)c1ccccc1)C2 | % | 26.4 |

----------
assay: Apparent volume of distribution at steady state in Sprague-Dawley rat at 10 mg/kg, iv by LC-MS/MS analysis; format: ADME, organism-based; design: dose 10 mg/kg, route intravenous; settings: in vivo, read-out: Vdss(app)
readout-kind: Vd (L/kg)

| record-smiles | readout-kind | measured-result |
| --- | --- | --- |
| Cc1cc(C(=O)N2CCc3c(sc(NCc4ccccc4)c3C#N)C2)[nH]n1 | Vd | 1.66 |

----------
experiment: AUClast in Sprague-Dawley rat at 10 mg/kg, iv by LC-MS/MS analysis; assay type: ADME, organism-based; parameters: time 0 - last, dose 10 mg/kg, route intravenous; conditions: plasma

| record-smiles | AUC(0-t) (µg·h/mL) |
| --- | --- |
| Cc1cc(C(=O)N2CCc3c(sc(NCc4ccccc4)c3C#N)C2)[nH]n1 | 9.06 |
